assay text: Single-dose PK and bioavailability of ZB716 in rats
Type: in vivo
cond: female, Sprague Dawley, rat, plasma; single dose, IV 2 mg/kg/day, F
property label: AUC(0-t) (ng·h/mL)

molecule	property label	measurement unit	measured result
C[C@]12CC[C@@H]3c4ccc(B(O)O)cc4C[C@@H](CCCCCCCCC[S+]([O-])CCCC(F)(F)C(F)(F)F)[C@H]3[C@@H]1CC[C@@H]2O (stereo partly shown) [ZB716, fulvestrant-3-boronic acid]	AUC(0-t)	ng·h/mL	6440

---

System: CYP2B6
assay text: CYP induction (enzyme activity) in cryopreserved human hepatocytes, CYP2B6
cond: human, plated cryopreserved human hepatocytes, Fold Induction, donor one, 1.5 µM

molecule	fold induction at 72 h, 1.5 µM
C[C@]12CC[C@@H]3c4ccc(B(O)O)cc4C[C@@H](CCCCCCCCC[S+]([O-])CCCC(F)(F)C(F)(F)F)[C@H]3[C@@H]1CC[C@@H]2O (stereo partly shown) [ZB716, fulvestrant-3-boronic acid]	1.77
